Listed molecules paired with reported viability, T/C
# System: 233499-124-R-J3-PDC complex spheroid growth
# test: Anticancer human tumor 233499-124-R-J3-PDC patient-derived colon adenocarcinoma cell line growth inhibition [AhR]
# assay conditions: second compound 10 µM; first compound 0.1 µM; stronger effect = lower value
Just the number in %, nothing appended.

COc1cc(Nc2ncc3c(n2)-c2ccc(Cl)cc2C(c2c(F)cccc2OC)=NC3)ccc1C(=O)O + CC(CO)NC(=O)c1cc(-c2ccc(Cl)cc2)nn(-c2cnn(C)c2)c1=O : 62.8
NS(=O)(=O)OCC1CC(n2ccc3c(NC4CCc5ccccc54)ncnc32)CC1O (stereo not drawn) + CC(CO)NC(=O)c1cc(-c2ccc(Cl)cc2)nn(-c2cnn(C)c2)c1=O : 54

Would you kindly look at the next entry?
[ask] May I ask what viability, T/C has been recorded for O=C(C=Cc1cccc(S(=O)(=O)Nc2ccccc2)c1)NO + Cc1ccccc1N=Nc1ccc(NC(=O)c2ccnn2C)c(C)c1 ?
[reply] 101

---

Listed molecules paired with reported viability, T/C
# Tested on: 233499-124-R-J3-PDC complex spheroid growth
# test: Anticancer human tumor 233499-124-R-J3-PDC cell line growth inhibition [AhR];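 also: spheroids exposed to agents for seven days before reading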
# assay conditions: second compound 10 µM; first compound 0.00949 µM; stronger effect = lower value
Just the number in %, nothing appended.

Use these answered entries as a reference point.
CCN(c1cc(-c2ccc(CN3CCOCC3)cc2)cc(C(=O)NCc2c(C)cc(C)[nH]c2=O)c1C)C1CCOCC1 + Cc1ccccc1N=Nc1ccc(NC(=O)c2ccnn2C)c(C)c1 : 101
Nc1ncn(C2CC(O)C(CO)S2)c(=O)n1 (stereo not drawn) + Cc1ccccc1N=Nc1ccc(NC(=O)c2ccnn2C)c(C)c1 : 107

[ask] Lookup: viability, T/C / 233499-124-R-J3-PDC complex spheroid growth / CCc1c2c(nc3ccc(O)cc13)-c1cc3c(c(=O)n1C2)COC(=O)[C@]3(O)CC + Cc1ccccc1N=Nc1ccc(NC(=O)c2ccnn2C)c(C)c1
[reply] 104

---

# Test system: 233499-124-R-J3-PDC complex spheroid growth
# test: Anticancer human tumor 233499-124-R-J3-PDC cell line growth inhibition [AhR];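 also: spheroids exposed to agents for seven days before reading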
# assay conditions: curve of compound
endpoint name: IC50

CC[C@@]1(O)C(=O)OCc2c1cc1n(c2=O)Cc2cc3c(CN(C)C)c(O)ccc3nc2-1 : > 0.1 µM

[ask] May I ask what IC50 has been recorded for CC1COCCN1c1cc(C2(S(C)(=N)=O)CC2)nc(-c2ccnc3[nH]ccc23)n1 (stereo not drawn) ?
[reply] > 10 µM

[ask] Also COc1cc(C2c3cc4c(cc3C(OC3OC5COC(C)OC5C(O)C3O)C3COC(=O)C23)OCO4)cc(OC)c1O (stereo not drawn) ?
[reply] > 10 µM

[ask] Also "COc1ccc([C@@H](O)c2cc(-c3ncnc4cc(N5CCOCC5)ccc34)c(F)cc2Cl)nn1" ?
[reply] > 10 µM

[ask] Also Nc1ncn(C2CC(O)C(CO)S2)c(=O)n1 (stereo not drawn) ?
[reply] > 0.3 µM

[ask] Also Nc1ncn(C2CC(O)C(CO)O2)c(=O)n1 (stereo not drawn) ?
[reply] > 1 µM

[ask] Also "O=C(c1cc(Cc2n[nH]c(=O)c3ccccc23)ccc1F)N1CCN(C(=O)C2CC2)CC1" ?
[reply] > 10 µM

[ask] Also "CCc1c2c(nc3ccc(O)cc13)-c1cc3c(c(=O)n1C2)COC(=O)[C@]3(O)CC" ?
[reply] > 0.3 µM

[ask] Also Cn1ncnc1C1c2n[nH]c(=O)c3cc(F)cc(c23)NC1c1ccc(F)cc1 (stereo not drawn) ?
[reply] > 0.1 µM

[ask] Also "O=C(C=Cn1cnc(-c2cc(C(F)(F)F)cc(C(F)(F)F)c2)n1)NNc1cnccn1" ?
[reply] > 3 µM

[ask] Also "COc1cc(Nc2ncc3c(n2)-c2ccc(Cl)cc2C(c2c(F)cccc2OC)=NC3)ccc1C(=O)O" ?
[reply] > 10 µM

[ask] Also "CCN(c1cc(-c2ccc(CN3CCOCC3)cc2)cc(C(=O)NCc2c(C)cc(C)[nH]c2=O)c1C)C1CCOCC1" ?
[reply] > 3 µM

[ask] Also "CC(C)c1c(-c2ccccc2)nc2c(C#N)c[nH]n2c1=O" ?
[reply] > 10 µM

// data source = PubChem BioAssay AID1918993
